The following compounds are shown together with reported CC50 values.
assay: Cellular toxicity, same assay as Example B.4 without TAM (Example B.5); format: cell-based; conditions: mouse; Pfa1 cells without TAM; read-out: TC50 (the source's name)

Please review the following examples before continuing.
[
  {
    "compound": "Clc1ccc(CNC2=Nc3ccccc3NC23CCCCC3)c(Cl)c1",
    "CC50": "20 to 50 µM"
  },
  {
    "compound": "Clc1ccccc1CNC1=Nc2ccccc2NC12CCSCC2",
    "CC50": "20 to 50 µM"
  },
  {
    "compound": "Fc1cc2c(cc1F)NC1(CCCCC1)C(NCc1cccc(Cl)c1)=N2",
    "CC50": "10 to 20 µM"
  },
  {
    "compound": "COc1cccc(CNC2=Nc3ccccc3NC23CCNCC3)c1",
    "CC50": "20 to 50 µM"
  },
  {
    "compound": "Cc1cc(C)cc(CNC2=Nc3ccccc3NC23CCNCC3)c1",
    "CC50": "20 to 50 µM"
  },
  {
    "compound": "CN1CCC2(CC1)Nc1cc(Cl)c(Cl)cc1N=C2NCc1ccccc1",
    "CC50": "0.5 to 1 µM"
  },
  {
    "compound": "Clc1cccc(CNC2=Nc3ccccc3NC23CCCCCCC3)c1",
    "CC50": "5 to 10 µM"
  },
  {
    "compound": "CC1CN(C)CCC12Nc1ccccc1N=C2NCc1ccccc1 (stereo not shown)",
    "CC50": "10 to 20 µM"
  },
  {
    "compound": "FC1(F)Oc2cc3c(cc2O1)NC1(CCCCC1)C(NCc1ccccc1)=N3",
    "CC50": "20 to 50 µM"
  }
]

// moving on: another record for CC50
Q: What value of CC50 has been reported for the following compound? `c1ccc(CCNC2=Nc3ccccc3NC23CCOCC3)cc1`
Result: 50 to 100 µM
